This collection of values is drawn from patent US20250163449A1.

- assay-remarks: Enzymatic kinetic measurements of purified proteins with compound A as substrate; further: unit not given here
- Type: biochemical
- settings: purified protein, compound A 0-1000 μM as substrate
Binarize Vmax at 40; below is Fulfilled, at or above is Not fulfilled.

molecule	cat
SEQ ID NO: 46: RdpA mutant L82H + V187L + F182W + R104G + T112S (protein) MHAALSPLSQRFERIAVQPLTGVLGAEITGVDLREPLDDSTWNEILDAFHTYQVIYFPGQAITNEQHIAFSRRFGPVDPVPHLKSIEGYPEVQMIRREANESGGVIGDDWHSDSTFLDAPPAAVVMRAIDVPEHGGDTGFLSMYTAWETLSPTMQATIEGLNVVHSATRVFGSLYQAQNRRWSNTSLKVMDVDAGDRETVHPLVVTHPGSGRKGLYVNQVYCQRIEGMTDAESKPLLQFLYEHATRFDFTCRVRWKKDQVLVWDNLCTMHRAVPDYAGKFRYLTRTTVGGVRPAR	Fulfilled
SEQ ID NO: 58: RdpA mutant L82H + V187L + F182W + R104G + R180M (protein) MHAALSPLSQRFERIAVQPLTGVLGAEITGVDLREPLDDSTWNEILDAFHTYQVIYFPGQAITNEQHIAFSRRFGPVDPVPHLKSIEGYPEVQMIRREANESGGVIGDDWHTDSTFLDAPPAAVVMRAIDVPEHGGDTGFLSMYTAWETLSPTMQATIEGLNVVHSATRVFGSLYQAQNMRWSNTSLKVMDVDAGDRETVHPLVVTHPGSGRKGLYVNQVYCQRIEGMTDAESKPLLQFLYEHATRFDFTCRVRWKKDQVLVWDNLCTMHRAVPDYAGKFRYLTRTTVGGVRPAR	Fulfilled
SEQ ID NO: 118: RdpA mutant L82H + V187L + F182W + R104G + V77I (protein) MHAALSPLSQRFERIAVQPLTGVLGAEITGVDLREPLDDSTWNEILDAFHTYQVIYFPGQAITNEQHIAFSRRFGPIDPVPHLKSIEGYPEVQMIRREANESGGVIGDDWHTDSTFLDAPPAAVVMRAIDVPEHGGDTGFLSMYTAWETLSPTMQATIEGLNVVHSATRVFGSLYQAQNRRWSNTSLKVMDVDAGDRETVHPLVVTHPGSGRKGLYVNQVYCQRIEGMTDAESKPLLQFLYEHATRFDFTCRVRWKKDQVLVWDNLCTMHRAVPDYAGKFRYLTRTTVGGVRPAR	Not fulfilled
SEQ ID NO: 50: RdpA mutant L82H + V187L + F182W + R104G + V80T (protein) MHAALSPLSQRFERIAVQPLTGVLGAEITGVDLREPLDDSTWNEILDAFHTYQVIYFPGQAITNEQHIAFSRRFGPVDPTPHLKSIEGYPEVQMIRREANESGGVIGDDWHTDSTFLDAPPAAVVMRAIDVPEHGGDTGFLSMYTAWETLSPTMQATIEGLNVVHSATRVFGSLYQAQNRRWSNTSLKVMDVDAGDRETVHPLVVTHPGSGRKGLYVNQVYCQRIEGMTDAESKPLLQFLYEHATRFDFTCRVRWKKDQVLVWDNLCTMHRAVPDYAGKFRYLTRTTVGGVRPAR	Fulfilled
SEQ ID NO: 38: RdpA mutant L82H + V187L + F182W + R104G (protein) MHAALSPLSQRFERIAVQPLTGVLGAEITGVDLREPLDDSTWNEILDAFHTYQVIYFPGQAITNEQHIAFSRRFGPVDPVPHLKSIEGYPEVQMIRREANESGGVIGDDWHTDSTFLDAPPAAVVMRAIDVPEHGGDTGFLSMYTAWETLSPTMQATIEGLNVVHSATRVFGSLYQAQNRRWSNTSLKVMDVDAGDRETVHPLVVTHPGSGRKGLYVNQVYCQRIEGMTDAESKPLLQFLYEHATRFDFTCRVRWKKDQVLVWDNLCTMHRAVPDYAGKFRYLTRTTVGGVRPAR	Not fulfilled
SEQ ID NO: 54: RdpA mutant L82H + V187L + F182W + R104G + R180W (protein) MHAALSPLSQRFERIAVQPLTGVLGAEITGVDLREPLDDSTWNEILDAFHTYQVIYFPGQAITNEQHIAFSRRFGPVDPVPHLKSIEGYPEVQMIRREANESGGVIGDDWHTDSTFLDAPPAAVVMRAIDVPEHGGDTGFLSMYTAWETLSPTMQATIEGLNVVHSATRVFGSLYQAQNWRWSNTSLKVMDVDAGDRETVHPLVVTHPGSGRKGLYVNQVYCQRIEGMTDAESKPLLQFLYEHATRFDFTCRVRWKKDQVLVWDNLCTMHRAVPDYAGKFRYLTRTTVGGVRPAR	Not fulfilled
